# MEASUREMENT TARGET: SHP2 (Homo sapiens, UniProt Q06124)
# Construct: catalytic domain of human SHP2 (amino acids 225–541); His10 (N); made in house; host or cells: E. coli B21 (DE3)
# Sequence (Q06124 225-541): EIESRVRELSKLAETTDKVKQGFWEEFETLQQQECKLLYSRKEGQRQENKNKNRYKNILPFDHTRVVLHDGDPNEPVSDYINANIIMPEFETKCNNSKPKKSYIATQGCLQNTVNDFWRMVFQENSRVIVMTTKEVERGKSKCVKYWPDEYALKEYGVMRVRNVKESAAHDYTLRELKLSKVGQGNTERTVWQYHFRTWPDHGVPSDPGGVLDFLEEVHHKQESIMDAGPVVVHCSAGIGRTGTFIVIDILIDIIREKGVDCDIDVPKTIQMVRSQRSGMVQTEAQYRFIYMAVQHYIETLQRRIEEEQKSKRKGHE
# ASSAY EXPLANATION: Determination of KI using Michaelis-Menten kinetics
# Format: biochemical
# RUN PARAMETERS: inhibitor 0, 75, 100, 150 nM; DiFMUP 100, 50, 25, 12.5 µM; R2 0.8991; read-out: KI by Michaelis-Menten kinetics, non-competitive model
ENDPOINT: pKi
Conceptually, pKi converts a concentration in mol/L into minus its log10.

Lookup: Respond only with pKi recorded for O=C(O)Cc1ccc(N/N=C2\C(=O)N(c3ccc([N+](=O)[O-])cc3)N=C2c2ccc([N+](=O)[O-])cc2)cc1
Found: 7.33
